Biological target: Human BCL-XL protein (N-terminal HiBiT tagged BCL-XL in HT1080 cells) (Homo sapiens, UniProt Q07817)
Construct: expressed in transfected cells; host or cells: HT-1080 (ATCC CCL-121), stably transduced with lentivirus pLV-UBC-N-HiBiT-BCL-XL-PGK-puro and selected with puromycin
Sequence (Q07817 whole entry): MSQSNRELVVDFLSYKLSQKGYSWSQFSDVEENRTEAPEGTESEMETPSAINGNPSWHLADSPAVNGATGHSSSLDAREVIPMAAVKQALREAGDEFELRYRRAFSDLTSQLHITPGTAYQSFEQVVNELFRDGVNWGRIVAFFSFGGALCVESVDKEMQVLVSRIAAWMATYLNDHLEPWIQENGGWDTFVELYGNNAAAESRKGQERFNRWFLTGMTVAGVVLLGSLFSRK
Assay: HiBiT based degradation assay
Type: cell-based
Settings: BCL-XL degradation normalized with DMSO control; HT1080 cells expressing HiBiT-BCL-XL; 24 h
assay.metric: Ymin (24 h)

Cc1c(OCCC2CCN(CCCC3CCN(c4ccc5c(C6CCC(=O)NC6=O)nn(C)c5c4)CC3)CC2)cccc1-c1ccc(N2CCc3cccc(C(=O)Nc4nc5ccccc5s4)c3C2)nc1C(=O)O (centres unmarked) [Compound 287]    A (Ymin < 50%)
Cc1c(OCCCC2CCN(CC(=O)Nc3ccc4c(C5CCC(=O)NC5=O)nn(C)c4c3)CC2)cccc1-c1ccc(N2CCc3cccc(C(=O)Nc4nc5ccccc5s4)c3C2)nc1C(=O)O (centres unmarked) [Compound 121]    A (Ymin < 50%)
Cc1c(O[C@H]2CC[C@H](CCCCN3CCN(c4ccc5c(C6CCC(=O)NC6=O)nn(C)c5c4C)CC3)CC2)cccc1-c1ccc(N2CCc3cccc(C(=O)Nc4nc5ccccc5s4)c3C2)nc1C(=O)O (some centres unmarked) [Compound 324a]    A (Ymin < 50%)

---

Molecular target: Human BCL-XL protein (N-terminal HiBiT tagged BCL-XL in HT1080 cells) (Homo sapiens)
Construct: expressed in transfected cells; host or cells: HT-1080 (ATCC CCL-121), stably transduced with lentivirus pLV-UBC-N-HiBiT-BCL-XL-PGK-puro and selected with puromycin
Experiment: HiBiT based degradation assay
Format: cell-based
Details: BCL-XL degradation normalized with DMSO control; HT1080 cells expressing HiBiT-BCL-XL; 6 h
assay.metric: Ymin (6 h)

Answered examples (4):
Cc1cc(Oc2ccc(CCC(=O)Nc3ccc4c(C5CCC(=O)NC5=O)nn(C)c4c3)cc2)ccc1-c1ccc(N2CCc3cccc(C(=O)Nc4nc5ccccc5s4)c3C2)nc1C(=O)O (stereo not drawn)    B (50% ≤ Ymin < 70%)
Cc1c(-c2ccc(N3CCc4cccc(C(=O)Nc5nc6ccccc6s5)c4C3)nc2C(=O)NCCCCCCCCCCCC(=O)Nc2ccc3c(C4CCC(=O)NC4=O)nn(C)c3c2)cnn1CC12CC3CC(CC(C3)C1)C2 (stereo not drawn)    B (50% ≤ Ymin < 70%)
Cc1c(OCCC2CCN(CC(=O)Nc3ccc4c(C5CCC(=O)NC5=O)nn(C)c4c3)CC2)cccc1-c1ccc(N2CCc3cccc(C(=O)Nc4nc5ccccc5s4)c3C2)nc1C(=O)O (stereo not drawn)    A (Ymin < 50%)
Cc1c(-c2ccc(N3CCc4cccc(C(=O)Nc5nc6ccccc6s5)c4C3)nc2C(=O)NCCCCCC(=O)Nc2cccc3c(C4CCC(=O)NC4=O)nn(C)c23)cnn1CC12CC3CC(CC(C3)C1)C2 (stereo not drawn)    B (50% ≤ Ymin < 70%)

Turning to the following compound.
Request: Using the record for Cc1cc(OCCCN2CCN(CC(=O)N3CCN(c4ccc5c(C6CCC(=O)NC6=O)nn(C)c5c4)CC3)CC2)ccc1-c1ccc(N2CCc3cccc(C(=O)Nc4nc5ccccc5s4)c3C2)nc1C(=O)O (stereo not drawn) , report its Ymin (6 h).
Response: A (Ymin < 50%)

---

Target: Human BCL-XL protein (N-terminal HiBiT tagged BCL-XL in HT1080 cells) (Homo sapiens)
Construct: expressed in transfected cells; host or cells: HT-1080 (ATCC CCL-121), stably transduced with lentivirus pLV-UBC-N-HiBiT-BCL-XL-PGK-puro and selected with puromycin
Experiment: HiBiT based degradation assay
Format: cell-based
Details: BCL-XL degradation normalized with DMSO control; HT1080 cells expressing HiBiT-BCL-XL; 24 h
assay.metric: Ymin (24 h)

Cc1c(O[C@H]2CC[C@H](CCCCN3CCN(c4ccc5c(C6CCC(=O)NC6=O)nn(C)c5c4)C[C@@H]3C)CC2)cccc1-c1ccc(N2CCc3cccc(C(=O)Nc4nc5ccccc5s4)c3C2)nc1C(=O)O (stereo partly drawn) [Compound 297b]    A (Ymin < 50%)
Cc1c(OCCCN2[C@H](C)CN(CC(=O)Nc3ccc4c(C5CCC(=O)NC5=O)nn(C)c4c3)C[C@@H]2C)cccc1-c1ccc(N2CCc3cccc(C(=O)Nc4nc5ccccc5s4)c3C2)nc1C(=O)O (stereo partly drawn) [Compound 131a]    A (Ymin < 50%)

---

Molecular target: Human BCL-XL protein (N-terminal HiBiT tagged BCL-XL in HT1080 cells) (Homo sapiens)
Construct: expressed in transfected cells; host or cells: HT-1080 (ATCC CCL-121), stably transduced with lentivirus pLV-UBC-N-HiBiT-BCL-XL-PGK-puro and selected with puromycin
Assay: HiBiT based degradation assay
Assay type: cell-based
Settings: BCL-XL degradation; HT1080 cells expressing HiBiT-BCL-XL; 6 h; read-out: EC50 (6 h)
assay.metric: DC50

Cc1c(OCCC2CCN(CC(=O)Nc3ccc4c(C5CCC(=O)NC5=O)nn(C)c4c3)CC2)cccc1-c1ccc(N2CCc3cccc(C(=O)Nc4nc5ccccc5s4)c3C2)nc1C(=O)O (stereo not drawn)    < 100 nM

Request: Using the record for Cc1c(-c2ccc(N3CCc4cccc(C(=O)Nc5nc6ccccc6s5)c4C3)nc2C(=O)NCCCCCCCCCC(=O)Nc2cccc3c(C4CCC(=O)NC4=O)nn(C)c23)cnn1CC12CC3CC(CC(C3)C1)C2 (stereo not drawn) , report its DC50.
Response: < 100 nM

Request: // next record Cc1c(OCCC[C@H]2CCCN(CC(=O)Nc3ccc4c(C5CCC(=O)NC5=O)nn(C)c4c3)C2)cccc1-c1ccc(N2CCc3cccc(C(=O)Nc4nc5ccccc5s4)c3C2)nc1C(=O)O (stereo partly drawn) [Compound 207b]
Response: < 100 nM

---

Below, each of the compounds is paired with its reported DC50 value.
Molecular target: Human BCL-XL protein (N-terminal HiBiT tagged BCL-XL in HT1080 cells) (Homo sapiens, UniProt Q07817)
Construct: expressed in transfected cells; host or cells: HT-1080 (ATCC CCL-121), stably transduced with lentivirus pLV-UBC-N-HiBiT-BCL-XL-PGK-puro and selected with puromycin
Test: HiBiT based degradation assay
Assay type: cell-based
Conditions: BCL-XL degradation; HT1080 cells expressing HiBiT-BCL-XL; 6 h; read-out: EC50 (6 h)

Answered examples (3):
Cc1c(OCCN2CCN(CC(=O)Nc3ccc4c(C5CCC(=O)NC5=O)nn(C)c4c3)CC2)cccc1-c1ccc(N2CCc3cccc(C(=O)Nc4nc5ccccc5s4)c3C2)nc1C(=O)O (centres unmarked) [Compound 103]    < 100 nM
Cc1c(OCCCCCCCCCN2CCN(c3cccc4c(C5CCC(=O)NC5=O)nn(C)c34)CC2)cccc1-c1ccc(N2CCc3cccc(C(=O)Nc4nc5ccccc5s4)c3C2)nc1C(=O)O (centres unmarked) [Compound 237]    < 100 nM
Cc1cc(Oc2ccc(CCC(=O)Nc3ccc4c(C5CCC(=O)NC5=O)nn(C)c4c3)cc2)ccc1-c1ccc(N2CCc3cccc(C(=O)Nc4nc5ccccc5s4)c3C2)nc1C(=O)O (centres unmarked) [Compound 139]    100 to 1000 nM

Request: Using the record for Cc1c(O[C@@H](C)CCC2CCN(CC(=O)Nc3cccc4c(C5CCC(=O)NC5=O)nn(C)c34)CC2)cccc1-c1ccc(N2CCc3cccc(C(=O)Nc4nc5ccccc5s4)c3C2)nc1C(=O)O (some centres unmarked) [Compound 169a] , report its DC50.
Response: 100 to 1000 nM

Request: // next record Cc1c(OCCCN2CCC(CC(=O)Nc3cccc4c(C5CCC(=O)NC5=O)nn(C)c34)CC2)cccc1-c1ccc(N2CCc3cccc(C(=O)Nc4nc5ccccc5s4)c3C2)nc1C(=O)O (centres unmarked) [Compound 122]
Response: < 100 nM

Request: // next record Cc1c(OCCO[C@@H]2C[C@H]3CC[C@@H](C2)N3CC(=O)Nc2ccc3c(C4CCC(=O)NC4=O)nn(C)c3c2)cccc1-c1ccc(N2CCc3cccc(C(=O)Nc4nc5ccccc5s4)c3C2)nc1C(=O)O (some centres unmarked) [Compound 174b]
Response: 100 to 1000 nM

Request: // next record Cc1c(OCCCC2CCN(CC(=O)N3CCN(c4cccc5c(C6CCC(=O)NC6=O)nn(C)c45)CC3)CC2)cccc1-c1ccc(N2CCc3cccc(C(=O)Nc4nc5ccccc5s4)c3C2)nc1C(=O)O (centres unmarked) [Compound 144]
Response: < 100 nM

Request: // next record Cc1c(OCCCN2C[C@H]3CC[C@@H](C2)N3CC(=O)Nc2ccc3c(C4CCC(=O)NC4=O)nn(C)c3c2)cccc1-c1ccc(N2CCc3cccc(C(=O)Nc4nc5ccccc5s4)c3C2)nc1C(=O)O (some centres unmarked) [Compound 127]
Response: < 100 nM

Request: // next record Cc1c(OCCCCCCCCN2CCN(c3ccc4c(C5CCC(=O)NC5=O)nn(C)c4c3)CC2)cccc1-c1ccc(N2CCc3cccc(C(=O)Nc4nc5ccccc5s4)c3C2)nc1C(=O)O (centres unmarked) [Compound 205]
Response: < 100 nM

Request: // next record Cc1c(-c2ccc(N3CCc4cccc(C(=O)Nc5nc6ccccc6s5)c4C3)nc2C(=O)NCCCCCCCCCCCC(=O)Nc2ccc3c(C4CCC(=O)NC4=O)nn(C)c3c2)cnn1CC12CC3CC(CC(C3)C1)C2 (centres unmarked) [Compound 113]
Response: 100 to 1000 nM

Request: // next record Cc1c(OCCC2CCN(CC(=O)N3CCN(c4cccc5c(C6CCC(=O)NC6=O)nn(C)c45)CC3)CC2)cccc1-c1ccc(N2CCc3cccc(C(=O)Nc4nc5ccccc5s4)c3C2)nc1C(=O)O (centres unmarked) [Compound 145]
Response: < 100 nM

Request: // next record Cc1c(OCCCN2CCN(CC(=O)Nc3cccc4c(C5CCC(=O)NC5=O)nn(C)c34)[C@H](C(F)(F)F)C2)cccc1-c1ccc(N2CCc3cccc(C(=O)Nc4nc5ccccc5s4)c3C2)nc1C(=O)O (some centres unmarked) [Compound 218b]
Response: 1000 to 10000 nM

Request: // next record Cc1c(O[C@H]2CC[C@H](CCC(=O)N3CCN(c4ccc5c(C6CCC(=O)NC6=O)nn(C)c5c4)CC3)CC2)cccc1-c1ccc(N2CCc3cccc(C(=O)Nc4nc5ccccc5s4)c3C2)nc1C(=O)O (some centres unmarked) [Compound 138a]
Response: 1000 to 10000 nM

Request: // next record Cc1c(OCCO[C@@H]2C[C@H]3CC[C@@H](C2)N3CC(=O)Nc2cccc3c(C4CCC(=O)NC4=O)nn(C)c23)cccc1-c1ccc(N2CCc3cccc(C(=O)Nc4nc5ccccc5s4)c3C2)nc1C(=O)O (some centres unmarked) [Compound 224a]
Response: 1000 to 10000 nM
